Exercise: state measured IC50 for each of the molecules provided.
biological target: 5HT-transporter (Homo sapiens, UniProt P31645); construct: Human platelet membranes (Oceanix Biosciences Corporation, Hanover, Md., USA) were thawed; tissue Oceanix Biosciences Corporation, Hanover, Md., USA; host or cells: human platelet membranes; experiment: Binding experiment for the 5HT-transporter ([3H]paroxetine, human platelet membranes); conditions: [3H]paroxetine 0.5 nM, 60 min at 25° C., read-out: h-5HTT pIC50 (converted)
Sequence (P31645 whole entry): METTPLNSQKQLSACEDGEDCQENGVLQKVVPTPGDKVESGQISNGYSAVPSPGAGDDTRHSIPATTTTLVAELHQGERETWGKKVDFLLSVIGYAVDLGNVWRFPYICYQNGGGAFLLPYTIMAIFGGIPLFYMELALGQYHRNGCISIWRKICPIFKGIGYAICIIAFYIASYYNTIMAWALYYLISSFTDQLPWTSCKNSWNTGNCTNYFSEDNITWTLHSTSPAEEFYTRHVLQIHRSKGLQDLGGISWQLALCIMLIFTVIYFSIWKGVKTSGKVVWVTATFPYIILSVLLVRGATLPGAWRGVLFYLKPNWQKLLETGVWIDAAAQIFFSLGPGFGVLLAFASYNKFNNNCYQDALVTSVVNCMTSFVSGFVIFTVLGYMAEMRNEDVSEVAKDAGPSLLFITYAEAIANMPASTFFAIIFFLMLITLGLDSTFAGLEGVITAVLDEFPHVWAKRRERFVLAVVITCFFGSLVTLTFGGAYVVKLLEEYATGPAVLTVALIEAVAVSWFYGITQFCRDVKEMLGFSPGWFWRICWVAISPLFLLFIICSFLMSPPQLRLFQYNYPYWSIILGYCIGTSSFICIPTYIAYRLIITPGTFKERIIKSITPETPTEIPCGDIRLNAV
Record the value in µM, omitting the unit from your answer.

Please report the measured IC50 for O=C(Cn1ccnc(NC2CCN(Cc3ccc4ccccc4c3)CC2)c1=O)NCCCc1ccccc1 [1-72]
0.0631

Could you please provide reported IC50 for O=C1c2ccccc2C(=O)N1C/C=C/Cn1ccnc(NC2CCN(Cc3ccc4ccccc4c3)CC2)c1=O [2-18] ? Thanks!
0.00398

Please indicate IC50 recorded for COc1ccc(Cn2c(-c3cccc(N4CCC(N5CCCC5)CC4)c3)c(Cl)nc(NC3CCN(Cc4ccc5ccccc5c4)CC3)c2=O)cc1 [8-13]
0.126

Query IC50 for O=c1[nH]c(-c2cccc(CN3CCC(F)CC3)c2)c(Cl)nc1NC1CCN(Cc2ccc3ccccc3c2)CC1 [7-06]
1

---

Target: human adrenergic-α2A receptor (Homo sapiens)
Construct: expressed in transfected cells; host or cells: CHO cells, stably transfected; membrane preparation
Sequence (P08913 1-465): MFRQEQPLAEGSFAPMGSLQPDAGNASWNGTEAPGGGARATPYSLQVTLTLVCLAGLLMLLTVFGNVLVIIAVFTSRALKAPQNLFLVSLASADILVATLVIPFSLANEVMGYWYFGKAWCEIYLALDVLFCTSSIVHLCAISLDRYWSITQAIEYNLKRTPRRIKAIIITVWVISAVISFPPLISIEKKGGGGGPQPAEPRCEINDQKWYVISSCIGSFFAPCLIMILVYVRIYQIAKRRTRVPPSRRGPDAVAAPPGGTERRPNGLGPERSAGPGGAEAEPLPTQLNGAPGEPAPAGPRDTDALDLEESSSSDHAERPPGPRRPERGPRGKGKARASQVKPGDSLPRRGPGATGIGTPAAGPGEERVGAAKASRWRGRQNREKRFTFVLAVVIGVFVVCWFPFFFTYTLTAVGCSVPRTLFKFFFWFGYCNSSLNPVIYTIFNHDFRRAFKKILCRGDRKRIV
Test: Radioligand binding experiment for hα2A-adrenergic receptor ([3H]raulwolscine)
Details: [3H]raulwolscine 1 nM, 60 minutes at 25° C.; read-out: h-α2A pIC50 (converted)
Record form. Attribute: IC50. Fill in for each entry.

State its IC50: O=c1c(NC2CCN(Cc3ccc4ccccc4c3)CC2)nccn1CCN1CCOCC1
1 µM

Look up and report measured IC50 for this entry: CCCC(=O)Nc1cccc(-n2ccnc(NC3CCN(Cc4ccc5ccccc5c4)CC3)c2=O)c1
0.0398 µM

Determine its reported IC50: O=c1c(NC2CCN(Cc3ccc4ccccc4c3)CC2)nccn1-c1csc2ccccc12
0.251 µM

Please give the documented IC50 of O=C(Cc1ccsc1)NCc1ccc(-n2ccnc(NC3CCN(Cc4ccc5ccccc5c4)CC3)c2=O)cc1
0.398 µM

Write down IC50 measured for item O=c1c(NC2CCN(Cc3ccc4ccccc4c3)CC2)nccn1-c1ccc2[nH]ccc2c1
0.126 µM

Supply reported IC50 belonging to this compound: COc1ccc(Cn2c(-c3cccc(N4CCC(N5CCCC5)CC4)c3)c(Cl)nc(NC3CCN(Cc4ccc5ccccc5c4)CC3)c2=O)cc1
0.501 µM

Could you please provide reported IC50 for O=c1c(NC2CCN(Cc3ccc4ccccc4c3)CC2)nccn1-c1ccc(NCC2CCCO2)cc1 (centres unmarked) ? Thanks!
0.2 µM

Report IC50 for CCCCN(Cc1ccccc1)C(=O)Cn1ccnc(NC2CCN(Cc3ccc4ccccc4c3)CC2)c1=O
0.2 µM

State, in one line, measured IC50 of O=c1c(NC2CCN(Cc3ccc4ccccc4c3)CC2)nccn1CCCCO
0.398 µM

Query IC50 for CCOC(=O)CCCCn1ccnc(NC2CCN(Cc3ccc4ccccc4n3)CC2)c1=O
0.631 µM

Quote IC50 reported for COCCNCc1ccc(-n2ccnc(NC3CCN(Cc4ccc5ccccc5c4)CC3)c2=O)cc1 please.
0.2 µM

Read the entry O=c1c(NC2CCN(Cc3ccc4ccccc4c3)CC2)nccn1-c1ccccn1 and write its reported IC50.
0.0631 µM

Complete the entry with IC50 for O=c1[nH]c(-c2cccc(CN3CCCCC3)c2)c(Cl)nc1NC1CCN(Cc2ccc3ccccc3c2)CC1
0.794 µM

Answer with the recorded IC50 of O=C1c2ccccc2C(=O)N1CCCn1ccnc(NC2CCN(Cc3cnc4ccccc4c3)CC2)c1=O only.
> 10 µM

Supply IC50 value. Item: CCOC(CCn1ccnc(NC2CCN(Cc3ccc4ccccc4c3)CC2)c1=O)OCC
0.794 µM

Fill in reported IC50 for this entry: CCOC(=O)CCCn1ccnc(NC2CCN(Cc3ccc4ccccc4c3)CC2)c1=O
0.2 µM

Return IC50 (reported value) for this compound: C=CCSc1ncccc1C(=O)NCc1ccc(-n2ccnc(NC3CCN(Cc4ccc5ccccc5c4)CC3)c2=O)cc1
0.316 µM
